From: ChEMBL document CHEMBL1149291

experiment: Volume of distribution in Sprague-Dawley rat at 10 mg/kg, iv; format: ADME, organism-based; parameters: dose 10 mg/kg, route intravenous; details: in vivo, read-out: Vss
Metric: Vd (L/kg)
Reply numerically in L/kg, unit not repeated.

[ask] GET /values?readout=Vd&item= Cc1nc(Nc2ncc(C(=O)Nc3c(C)cccc3Cl)s2)cc(N2CCN(CCO)CC2)n1.O
[reply] 6.3

----------
assay: AUC (total) in Sprague-Dawley rat at 10 mg/kg, iv; assay type: ADME, organism-based; parameters: dose 10 mg/kg, route intravenous; conditions: plasma
Metric: AUC (µM·h)
Give the value in µM·h but do not write µM·h after it.

[ask] Can you share its AUC? I mean this compound: Cc1nc(Nc2ncc(C(=O)Nc3c(C)cccc3Cl)s2)cc(N2CCN(CCO)CC2)n1.O
[reply] 13.9
